# assay-system: P. falciparum apicoplast DNA polymerase (Pf-apPOL) (Plasmodium falciparum, UniProt Q8ILY1)
# Sequence (Q8ILY1 entry or part of it): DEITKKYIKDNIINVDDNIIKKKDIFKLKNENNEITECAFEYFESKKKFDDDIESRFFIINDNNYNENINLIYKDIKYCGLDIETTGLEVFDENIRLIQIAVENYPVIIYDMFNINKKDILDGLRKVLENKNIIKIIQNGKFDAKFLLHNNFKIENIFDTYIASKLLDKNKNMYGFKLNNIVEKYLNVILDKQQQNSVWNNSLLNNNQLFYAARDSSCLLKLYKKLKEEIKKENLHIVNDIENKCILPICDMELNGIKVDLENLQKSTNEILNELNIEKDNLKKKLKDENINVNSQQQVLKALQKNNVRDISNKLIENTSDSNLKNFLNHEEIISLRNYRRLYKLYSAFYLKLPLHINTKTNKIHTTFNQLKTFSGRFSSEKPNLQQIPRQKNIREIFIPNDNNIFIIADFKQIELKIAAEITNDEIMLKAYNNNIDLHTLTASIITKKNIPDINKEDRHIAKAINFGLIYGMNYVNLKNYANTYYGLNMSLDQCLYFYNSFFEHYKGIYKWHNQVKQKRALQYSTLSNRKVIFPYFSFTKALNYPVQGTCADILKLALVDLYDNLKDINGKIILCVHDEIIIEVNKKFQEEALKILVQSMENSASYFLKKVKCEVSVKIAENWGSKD
# assay-text: Fluorescence-based high-throughput DNA polymerase assay (molecular beacon), primary screen and dose-response;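 also: test concentration in µM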
# Format: biochemical
# condition-description: DRC-2; concentration 20; 90'
test-readout: % inhibition ApPOL 90' (%)

molecule: O=C(Cn1ccc2c(=O)[nH]ccc21)Nc1ccccc1Cl [Molecule 19, O=C(Cn1ccc2c1cc[nH]c2=O)Nc1ccccc1Cl]
test-readout: % inhibition ApPOL 90'
result: 73

molecule: COc1ccc(-c2occ(C(=O)O)c2C(=O)O)cc1 [KU0021536]
test-readout: % inhibition ApPOL 90'
result: 66

molecule: Cc1ccc(C2=N/C(=C\c3ccc(I)o3)C(=O)O2)cc1[N+](=O)[O-] [KU0073890]
test-readout: % inhibition ApPOL 90'
result: 60

molecule: Nc1ncnc(NC2CCCCC2)c1[N+](=O)[O-] [KU0193018]
test-readout: % inhibition ApPOL 90'
result: 38

molecule: COc1cc(/C=C2\C(=O)N(c3ccc(C(=O)O)cc3)N=C2C(F)(F)F)ccc1OCC(C)C [KU0069072]
test-readout: % inhibition ApPOL 90'
result: 50

molecule: O=C(Cc1cccs1)N1CCN(c2nc(CN3CCOCC3)cs2)CC1 [Molecule 35]
test-readout: % inhibition ApPOL 90'
result: 62

molecule: CCOc1ccc2cc(C3=NN(C(=O)CCC(=O)O)C(c4ccc(C)cc4)C3)c(=O)[nH]c2c1 (centres unmarked) [KU0056200]
test-readout: % inhibition ApPOL 90'
result: 47

molecule: Oc1cccnc1/N=C/c1cc(I)cc(I)c1O [KU0073720]
test-readout: % inhibition ApPOL 90'
result: 62

molecule: COc1ccc(NC(=O)Cn2nc3c(cc2=O)CCC3)cc1Cl [Molecule 4, COc1ccc(cc1Cl)NC(=O)Cn1nc2CCCc2cc1=O]
test-readout: % inhibition ApPOL 90'
result: 73

molecule: COc1ccc(C=C2Oc3c(ccc4c3CN(Cc3ccco3)CO4)C2=O)c(OC)c1 [KU0199404]
test-readout: % inhibition ApPOL 90'
result: 45

molecule: O=C(O)c1nc(-c2ccccc2)nc2c1OCO2 [Molecule 45, OC(=O)c1nc(nc2c1OCO2)c1ccccc1]
test-readout: % inhibition ApPOL 90'
result: 45

Cited source for all entries: paper PMC9090415
